Assay system UniProt P0DTD1; read-out recorded as pIC50.
pIC50: −log10 of the molar value.
metric: pIC50

| compound | relation_sign | recorded_result |
| --- | --- | --- |
| O=C(NCCc1ccccc1)[C@@H]1CN(C(=O)CCl)CCN1S(=O)(=O)c1ccsc1 (stereo in doubt) | = | 5.89 |
| O=C(Cc1cc(Cl)cc(Nc2c(Cl)cccc2[N+](=O)[O-])c1)Nc1cncc2ccccc12 | = | 5.63 |
| CCC(C)(C)CCN(Cc1ccsc1)C(=O)Cn1nnc2ccccc21 | = | 4.11 |
| C=CC(=O)N(c1ccc(C(C)(C)C)cc1)C(C(=O)NCCc1cccc(F)c1)c1cccnc1 (stereo not given) | = | 5.53 |
| O=c1[nH]c(Cc2cccc(S(F)(F)(F)(F)F)c2)nc2cnccc12 | < | 4.00 |
| COc1cc(Cl)cc2c1OCC[C@H]2C(=O)Nc1cncc2ccccc12 (stereo in doubt) | < | 4.00 |
| Cn1ncc2cc(C(=O)NNc3nc4cccnc4s3)cnc21 | < | 4.00 |
| Cn1ncc2cncc(NC(=O)Cc3cccc(Cl)c3)c21 | = | 5.82 |
| N#CCCN1CCN(C(=O)CC2(C(=O)Nc3cncc4ccccc34)CCOc3ccc(Cl)cc32)CC1 (stereo not given) | = | 4.67 |
| COc1ccc(N(C(=O)c2cnc[nH]2)C(C(=O)NCCc2cccc(F)c2)c2cccnc2)cc1 (stereo not given) | = | 4.03 |
| N#CC1(CS(=O)(=O)N2Cc3ccc(Cl)cc3C(C(=O)Nc3cncc4cccc(Cl)c34)C2)CC1 (stereo not given) | = | 6.59 |
| CS(=O)(=O)CCN1CC(C(=O)Nc2cncc3ccccc23)c2cc(Cl)ccc2C1=O (stereo not given) | = | 6.75 |
| CC(C)(C)c1ccc(N(C(=O)c2nc3c(s2)CCC3)C(C(=O)NCCc2cccc(F)c2)c2cccnc2)cc1 (stereo not given) | < | 4.00 |
| O=C1C(=O)N(Cc2ccccc2)c2ccc([N+](=O)[O-])cc21 | < | 4.00 |
| N#Cc1cccc(NC(=O)Nc2c[nH]c3ncccc23)c1 | = | 4.20 |
| O=C(Nc1cncc2ccccc12)C1CN(S(=O)(=O)C2COC2)Cc2ccc(Cl)cc21 (stereo not given) | = | 6.61 |
| CC(C)(C)c1ccc(N(C(=O)c2ccc(Cl)o2)C(C(=O)NCCc2cccc(F)c2)c2cccnc2)cc1 (stereo not given) | = | 6.50 |
| O=C(Cc1cc(Cl)cc(Nc2ccc3nccnc3c2Br)c1)Nc1cncc2ccccc12 | = | 5.71 |
| O=C(NCCc1cccc(F)c1)C(c1cccnc1)N(C(=O)c1cocn1)c1ccc(-c2nnc3n2CCC3)cc1 (stereo not given) | < | 4.00 |
| O=C(Nc1ccc2nccnc2c1)c1csc2cncn12 | < | 4.00 |

---

Assay system SARS-CoV-2 Main Protease (SARS-CoV-2) (UniProt P0DTD1); read-out recorded as pIC50.
pIC50: −log10 of the molar value.

| compound | relation_sign | pIC50 |
| --- | --- | --- |
| COc1ncc(Br)cc1Nc1cc(Cl)cc(CC(=O)Nc2cncc3ccccc23)c1 | = | 6.17 |
| CC(C)(C)c1ccc(N(C(=O)c2cn(C3COCC3=O)nn2)C(C(=O)NCCc2cccc(F)c2)c2cccnc2)cc1 (stereo not given) | = | 4.71 |
| N#Cc1nccn1CCCc1cccc(Cl)c1 | < | 4.00 |
| CN(C)c1ccc(N(Cc2ccn[nH]2)C(=O)Cn2nnc3ccccc32)cc1 | = | 4.80 |
| C=CC(=O)N(c1ccc(C(C)(C)C)cc1)C(C(=O)NCC)c1cccnc1 (stereo not given) | = | 4.34 |
